Reference source: patent US20110039847A1

Target: SIRT1 (Homo sapiens)
Sequence (Q96EB6 1-747): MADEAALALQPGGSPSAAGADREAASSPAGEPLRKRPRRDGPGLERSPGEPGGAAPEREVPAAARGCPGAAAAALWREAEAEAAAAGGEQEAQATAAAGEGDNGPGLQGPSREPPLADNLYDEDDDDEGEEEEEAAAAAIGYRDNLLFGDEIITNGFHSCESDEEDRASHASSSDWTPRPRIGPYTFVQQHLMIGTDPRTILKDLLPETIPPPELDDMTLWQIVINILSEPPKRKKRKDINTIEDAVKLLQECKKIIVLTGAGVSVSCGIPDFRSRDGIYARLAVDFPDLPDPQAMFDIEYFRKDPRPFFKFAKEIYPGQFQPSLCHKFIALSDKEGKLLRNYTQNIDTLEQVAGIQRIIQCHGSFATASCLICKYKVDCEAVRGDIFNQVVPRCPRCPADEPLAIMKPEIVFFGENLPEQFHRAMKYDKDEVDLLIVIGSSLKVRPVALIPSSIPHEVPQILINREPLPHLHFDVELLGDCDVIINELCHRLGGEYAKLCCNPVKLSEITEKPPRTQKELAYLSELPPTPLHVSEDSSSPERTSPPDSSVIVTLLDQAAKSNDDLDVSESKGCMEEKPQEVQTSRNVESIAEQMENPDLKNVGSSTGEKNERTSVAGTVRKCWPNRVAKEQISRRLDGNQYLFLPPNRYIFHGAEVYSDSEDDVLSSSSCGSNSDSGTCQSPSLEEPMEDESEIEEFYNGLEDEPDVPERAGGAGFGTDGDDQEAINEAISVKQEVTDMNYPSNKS
Experiment: Mass spectrometry based SIRT1 deacetylation (activation) assay
Format: biochemical
Settings: 0.5 μM peptide substrate, 120 μM βNAD+, 10 nM SIRT1, 25 min at 25° C.
readout.kind: EC1.5

Take a look at these entries with their results.
CN(C)CCN(C)c1cc(C(=O)Nc2ccccc2-c2nnc(C3CCC3)s2)nc(-c2ccccc2)n1 | A (EC1.5≦1 uM)
CN(C)CCNc1cc(C(=O)Nc2ccccc2C(=O)Nc2c(Cl)cccc2Cl)nc(-c2ccccc2)n1 | A (EC1.5≦1 uM)
CCN(CCN(C)C)c1cc(C(=O)Nc2ccccc2-c2nnc(C(C)C)s2)nc(-c2ccccc2)n1 | A (EC1.5≦1 uM)
CC(=O)c1ccccc1NC(=O)c1cc(N2CCOCC2)nc(-c2ccccc2)n1 | A (EC1.5≦1 uM)
CCN(CCN(C)C)c1cc(C(=O)Nc2ccccc2C(=O)NC2CCCN(C(=O)OC(C)(C)C)C2)nc(-c2ccccc2)n1 (stereo not shown) | B (EC1.5>1 and ≦10 uM)

Specify EC1.5 for CN(C)CCNc1cc(C(=O)Nc2ccccc2-c2nnc(C(N)=O)s2)nc(-c2ccccc2)n1 , system SIRT1 (Homo sapiens).
A (EC1.5≦1 uM)

Specify EC1.5 for CCc1nnc(-c2ccccc2NC(=O)c2cc(NCCN(C)C)nc(-c3ccccc3)n2)s1 , system SIRT1 (Homo sapiens).
B (EC1.5>1 and ≦10 uM)

Specify EC1.5 for CC(C)(C)c1cnc(-c2ccccc2NC(=O)c2cc(OC[C@@H](O)CO)cc(-c3ccccc3)n2)s1 , system SIRT1 (Homo sapiens).
B (EC1.5>1 and ≦10 uM)

Specify EC1.5 for CN(C)CCNc1cc(C(=O)Nc2ccccc2C(=O)N2CCCC2)nc(-c2ccccc2)n1 , system SIRT1 (Homo sapiens).
C (EC1.5>10 uM)

Specify EC1.5 for CCN(CC)CCNc1cc(C(=O)Nc2ccccc2C(C)=O)nc(-c2ccccc2)n1 , system SIRT1 (Homo sapiens).
B (EC1.5>1 and ≦10 uM)

Specify EC1.5 for CCOC(=O)c1nnc(-c2ccccc2NC(=O)c2cc(N(CC)CCN(C)C)nc(-c3ccccc3)n2)s1 , system SIRT1 (Homo sapiens).
A (EC1.5≦1 uM)

Specify EC1.5 for CN(C)CCNc1cc(C(=O)Nc2ccccc2C(=O)Nc2ccncc2)nc(-c2ccccc2)n1 , system SIRT1 (Homo sapiens).
A (EC1.5≦1 uM)

Specify EC1.5 for CCN(CCN(C)C)c1cc(C(=O)Nc2ccccc2C(=O)c2nccs2)nc(-c2ccccc2)n1 , system SIRT1 (Homo sapiens).
A (EC1.5≦1 uM)

Specify EC1.5 for CC(=O)c1ccccc1NC(=O)c1cc(NC2CCN(C)CC2)nc(-c2ccccc2)n1 , system SIRT1 (Homo sapiens).
A (EC1.5≦1 uM)

Specify EC1.5 for Cc1ccc(NC(=O)c2ccccc2NC(=O)c2cc(NCCN(C)C)nc(-c3ccccc3)n2)cc1 , system SIRT1 (Homo sapiens).
A (EC1.5≦1 uM)

Specify EC1.5 for O=C(Nc1ccccc1-c1nnc(C(=O)N2CCOCC2)s1)c1cc(OC[C@@H](O)CO)nc(-c2ccccc2)n1 , system SIRT1 (Homo sapiens).
A (EC1.5≦1 uM)

Specify EC1.5 for CN(C)CCNc1cc(C(=O)Nc2ccccc2C(=O)Nc2ccccc2C(N)=O)nc(-c2ccccc2)n1 , system SIRT1 (Homo sapiens).
A (EC1.5≦1 uM)

Specify EC1.5 for CC(C)Cc1nnc(-c2ccccc2NC(=O)c2cc(NCCN(C)C)nc(-c3ccccc3)n2)s1 , system SIRT1 (Homo sapiens).
A (EC1.5≦1 uM)

Specify EC1.5 for NC(=O)c1nnc(-c2ccccc2NC(=O)c2cc(N3CCNCC3)nc(-c3ccccc3)n2)s1 , system SIRT1 (Homo sapiens).
A (EC1.5≦1 uM)

Specify EC1.5 for CN(C)CCNc1cc(C(=O)Nc2ccccc2-c2ccccc2)nc(-c2ccccc2)n1 , system SIRT1 (Homo sapiens).
C (EC1.5>10 uM)

Specify EC1.5 for CN(C)CCN(C)c1cc(C(=O)Nc2ccccc2-c2nncs2)nc(-c2ccccc2)n1 , system SIRT1 (Homo sapiens).
A (EC1.5≦1 uM)

Specify EC1.5 for CN(C)CCNC(=O)c1ccccc1NC(=O)c1cc(NCCN(C)C)nc(-c2ccccc2)n1 , system SIRT1 (Homo sapiens).
B (EC1.5>1 and ≦10 uM)

Specify EC1.5 for CCN(CCN(C)C)c1cc(C(=O)Nc2ccccc2C(=O)Nc2ccccc2C(N)=O)nc(-c2ccccc2)n1 , system SIRT1 (Homo sapiens).
A (EC1.5≦1 uM)
